Exercise: for every item that follows, state its recorded protein stability index.
B1: AUP1 (parent)
chain: FCASTRLPPTPLLLFPEEEATNGR

Variants of: B1
Protocol Description: protein stability index of a GFP-peptide fusion (GPS, HEK-293T) (PSI 1-6); higher = more stable;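 note: lentivirally expressed fusions sorted by FACS into six bins by GFP to DsRed ratio, PSI derived from sequencing read proportions per bin multiplied by bin number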
Condition Parameters: c terminus: a fixed tail appended
Give bare numbers.

Worked cases, answers included:
# Mutant Label, Measurement
records = [
    ("P8G", 2.66),
    ("L12I", 2.58),
    ("L13Q", 3.32),
]

// batch mode: one protein stability index value per listed entry
1. T10A
2. S4Y
3. P9V
4. E18W
5. A20F
6. E18T
7. C2D
8. T5M

OUTPUT:
3.13
2.28
2.62
1.73
2.21
2.2
4.81
2.96

Each of the following entries comes with a recorded value; kindly state protein stability index for each.
1. E19Y
2. P16Y
3. L12H
4. A20C
5. E19K
6. R24Q
7. F15G

OUTPUT:
1: 2.69; 2: 2.03; 3: 2.87; 4: 2.38; 5: 2.32; 6: 2.98; 7: 3.24

Hi there! I need protein stability index for each item below, if you can.
1. A20W
2. P11R
3. E17F
4. L13V
5. P16F
6. E17G
7. P9H
8. L7M

OUTPUT:
1. 2.15
2. 2.06
3. 1.83
4. 3.25
5. 2.24
6. 2.31
7. 2.56
8. 3

Below are some variants; for each one, tell me its protein stability index.
1. T5E
2. R24F
3. T10W
4. S4M
5. P11D
6. P16R

OUTPUT:
1. 3.77
2. 2.39
3. 2.33
4. 2.59
5. 2.99
6. 2.19
